tested on: MDCK; assay: Antiviral activity against influenza A virus (Mississippi) in Madin Darby canine kidney (MDCK) cell culture; type: functional; conditions: Canis lupus familiaris, read-out: ID50 (the source's name)
Hi there, I'd appreciate the recorded IC50 for every entry that follows.
Give bare numbers, in µg/mL.

Consider the worked cases shown below.
CC(N)C12CC3CC(C1)C(O)C(C3)C2 (stereo not given)
3.4
NC12CC3CC(CC(C3)C1)C2
0.113
CC(N)C12CC3CC(CC(O)(C3)C1)C2 (stereo not given) [3-HYDROXYRIMANTADINE]
6.7
CC(N)C12CC3CC(CC(C3)C1O)C2 (stereo not given)
0.15

API: the following record is the query input.
The compound listed as CC(N)C12CC3CC(CC(C3)C1)C2 (stereo not given) has a reported IC50 of 0.021

###

system: MDCK; test: Antiviral activity against influenza A virus (NY/83/5) in Madin Darby canine kidney (MDCK) cell culture; type: functional; conditions: Canis lupus familiaris, read-out: ID50 (the source's name)
Recorded metric: IC50
Write the figure, then the unit, nothing else.

Consider the worked cases shown below.
NC12CC3CC(CC(C3)C1)C2 [AMANTADINE]
0.08 µg/mL
CC(N)C12CC3CC(CC(O)(C3)C1)C2 (stereo not given) [3-HYDROXYRIMANTADINE]
4 µg/mL
CC(N)C12CC3CC(C1)C(O)C(C3)C2 (stereo not given)
0.804 µg/mL

Could you tell me IC50 for each of these compounds? They are listed below.
1. CC(N)C12CC3CC(CC(C3)C1)C2 (stereo not given) [RIMANTADINE]
2. CC(N)C12CC3CC(CC(C3)C1O)C2 (stereo not given)

["0.012 µg/mL", "0.101 µg/mL"]
